assay: Pressure filtration of crystallization slurry (overall filtration rate); assay type: physicochemical; conditions: 75 ml slurry pressure filtered at ΔP=1 bar, polypropylene filter cloth pore size about 3 μm, filtration area 13 cm^2; filtrate volume/(time·filter area)
From the text: […]
Exercise: for every item that follows, state its recorded filtration rate.
Answer with the number, then the unit.

Query: So what's the measured filtration rate for this one? C[C@@H]1OC(O[C@H]2[C@H](O[C@H]3[C@H](O)[C@@H](O)C(O)O[C@@H]3CO)O[C@H](CO)[C@H](O)[C@@H]2O)[C@@H](O)[C@H](O)[C@@H]1O (single isomer, unassigned) [Example 2, 2′-O-fucosyllactose]
Result: 0.62 cm/s

Query: So what's the measured filtration rate for this one? C[C@@H]1OC(O[C@H]2[C@H](O[C@H]3[C@H](O)[C@@H](O)C(O)O[C@@H]3CO)O[C@H](CO)[C@H](O)[C@@H]2O)[C@@H](O)[C@H](O)[C@@H]1O (single isomer, unassigned) [Example 3, 2′-O-fucosyllactose]
Result: 0.16 cm/s

Query: So what's the measured filtration rate for this one? C[C@@H]1OC(O[C@H]2[C@H](O[C@H]3[C@H](O)[C@@H](O)C(O)O[C@@H]3CO)O[C@H](CO)[C@H](O)[C@@H]2O)[C@@H](O)[C@H](O)[C@@H]1O (single isomer, unassigned) [Example 1, 2′-O-fucosyllactose]
Result: 0.39 cm/s

Query: So what's the measured filtration rate for this one? C[C@@H]1OC(O[C@H]2[C@H](O[C@H]3[C@H](O)[C@@H](O)C(O)O[C@@H]3CO)O[C@H](CO)[C@H](O)[C@@H]2O)[C@@H](O)[C@H](O)[C@@H]1O (stereo partly shown) [WO 2016/095924, 2′-O-fucosyllactose, reference compound]
Result: 0.064 cm/s

Each recorded value in this set is attributed to patent US12479878B2.
